Assay: in vitro
Conditions: human, HepG2-A16-CD81EGFP cells, uninfected
property_measured: viability at 48 h, 3 µM

{"molecule": "COc1ccccc1NC(=O)N1CCOc2ccc(CN3CCc4ccccc4C3)cc2C1", "reading": "96.8%"}
{"molecule": "CC1CCCN(Cc2c(O)ccc3c(=O)c(-c4ccc(Cl)cc4)coc23)C1 (centres unmarked)", "reading": "99%"}
{"molecule": "CCN1CCN(C(=O)c2ccc3c(c2)N(Cc2ccccc2F)C(=O)c2ccccc2[S+]3[O-])CC1 (centres unmarked)", "reading": "98.8%"}
{"molecule": "COc1ccc(OC)c(NC(=O)c2ccc3c(c2)N([S+](=O)([O-])c2ccccc2)CC3)c1", "reading": "109%"}
{"molecule": "COc1ccc2nc3cc(Cl)ccc3c(Nc3cc(C(C)C)c(O)cc3C)c2c1", "reading": "95%"}
{"molecule": "CCOC(=O)C1(Cc2ccccc2C(F)(F)F)CCNCC1", "reading": "105%"}
{"molecule": "COc1ccc(C2C(C(=O)N3CCCCC3)CC(=O)N2c2ccc(OC)cc2)cc1 (centres unmarked)", "reading": "91%"}
{"molecule": "Cc1ccc(NC(=O)c2cc(C(=O)c3cc(Cl)ccc3O)cn(-c3ccc(C)cc3)c2=O)cc1", "reading": "93%"}
{"molecule": "Cc1cc(N2CCN(C)CC2)nc2ccc(NC(=O)c3ccc(Br)o3)cc12", "reading": "104%"}
{"molecule": "Cc1ccccc1NC(=O)c1cc(C(=O)c2cc(Cl)ccc2O)cn(-c2ccccc2C)c1=O", "reading": "93%"}
{"molecule": "CCCOC(=O)c1c(NC(=O)C(C)Sc2nc(-c3ccccc3)cc(C(F)(F)F)n2)sc(C(=O)N(C)C)c1C (centres unmarked)", "reading": "100%"}
{"molecule": "Cc1ccccc1[S+](=O)([O-])N1CCCC(CCC(=O)NCCN(C)C2CCCCC2)C1 (centres unmarked)", "reading": "109%"}
{"molecule": "Cc1nn2c(c1-c1ccccc1Oc1ccccc1)N(Cc1ccccc1O)CCC2", "reading": "115%"}
{"molecule": "CCN(CC)CCN1C(=O)c2ccccc2NC1c1ccc(C)cc1 (centres unmarked)", "reading": "104%"}
{"molecule": "COc1ccc(-c2csc3ncnc(Cl)c23)cc1", "reading": "86%"}
{"molecule": "COc1cc2nc(Nc3ccc(C)c(C)c3)nc(N)c2cc1OC", "reading": "97%"}
{"molecule": "COc1ccc(NC2=C(c3ccc(OC)cc3)C(=O)c3ccccc32)cc1", "reading": "90%"}

* * *

Assay: in vitro
Conditions: human, hepg2 cells

{"compound": "Cc1nc(C)c(C(=O)N2CC(Oc3ccc(-c4noc(-c5ccccc5)n4)cc3)C2)s1", "display_unit": "µM", "CC50 at 48 h": 30.6}
{"compound": "Cc1ccc([S+](=O)([O-])NC[C@H]2C[C@@H]3CC[N@]2C[C@@H]3CN2CCc3ccccc32)cc1", "display_unit": "µM", "CC50 at 48 h": 55.9}
{"compound": "COc1cccc(Nc2ccc3c(n2)C(C)(C(=O)NC2CCN(C)CC2)CN(C)C3)c1 (stereo not shown)", "display_unit": "µM", "CC50 at 48 h": 55.9}
{"compound": "CCN(CC)CCn1c(=N)n(CC(=O)c2ccc(Br)s2)c2ccccc21", "display_unit": "µM", "CC50 at 48 h": 30.6}
